Recorded measurements of z-score, one per entry
Assay Procedure: E. coli acrAB mutant growth effects, primary screen, E. coli filamentation inducers, strain DRC39, OD650, 48 h (AID 1179);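 also: screen aims at cell division blockers that make cells filament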
Experimental Setup: E. coli DRC39 delta-acrAB growth, higher = more signal, called active from +8 up or from −8 down
Keep it simple and answer with nothing but the number.

Some solved entries appear below for comparison.
[
  {
    "Molecule": "C#CCOc1ccc(C[C@H]2C(=O)O[C@H](Cc3ccccc3)[C@H](/C=C/C3CC3)N2CC#C)cc1",
    "z-score": 1.81
  },
  {
    "Molecule": "CC1CC/C=C\\[C@H]2OC34C=CCN(C(C)C)C(=O)[C@H]3N(C(CO)C(C)C)C(=O)[C@@H]4C2C(=O)O1 (stereo partly drawn)",
    "z-score": 1.46
  },
  {
    "Molecule": "C=CC[C@]1(C(=O)N2CCCCC2)COC(c2ccc(OCCCO)cc2)=N1",
    "z-score": 0.693
  },
  {
    "Molecule": "COc1ccc(CCNC(=O)[C@@]2(Sc3ccc(C)cc3)CC(=O)N(Cc3ccccc3)[C@@H]2c2ccc(CO)cc2I)cc1",
    "z-score": -0.0855
  }
]

Input: Requested read-out: z-score. Entry: O=C(O)[C@H]1C[C@H]2C(=O)N[C@@H](Cc3ccccc3)C(=O)N2[C@H]1c1ccc(O)cc1
Output: 0.361

Input: Look at this molecule and give its reported z-score. NC(=O)N1C(=O)C2C(C1=O)C1C=C(c3ccc(CO)cc3)C2C(C2CC2)N1Cc1cc2c(cc1Br)OCO2 (stereo not drawn)
Output: 0.422
